# DC50 per entry
target: IRAK4 (Homo sapiens (Human), UniProt Q9NWZ3); assay: IRAK4 MSD degradation in OCI-LY10; format: cell-based; conditions: OCI-LY10, 4 hrs, MSD; read-out: IRAK4 MSD degradation in OCI-LY10 at 4 hrs: Average external-Abs DC50
Sequence (Q9NWZ3 whole entry): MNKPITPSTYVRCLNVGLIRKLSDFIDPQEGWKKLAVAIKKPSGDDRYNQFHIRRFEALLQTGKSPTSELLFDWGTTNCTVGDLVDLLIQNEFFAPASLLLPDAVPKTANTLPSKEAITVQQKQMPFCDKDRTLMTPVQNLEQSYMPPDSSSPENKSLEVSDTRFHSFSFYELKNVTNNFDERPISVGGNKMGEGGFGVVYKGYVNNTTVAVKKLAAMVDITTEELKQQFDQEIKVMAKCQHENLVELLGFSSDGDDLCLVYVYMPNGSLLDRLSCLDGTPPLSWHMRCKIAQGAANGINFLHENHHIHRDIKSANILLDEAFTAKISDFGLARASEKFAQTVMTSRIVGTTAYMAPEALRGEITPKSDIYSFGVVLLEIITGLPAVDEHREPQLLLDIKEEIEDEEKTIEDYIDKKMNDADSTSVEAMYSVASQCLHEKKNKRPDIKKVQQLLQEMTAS

Before answering, review these 5 worked examples.
- molecule: "Cn1c(=O)n(C2CCC(=O)NC2=O)c2cccc(CCN3CC4(CCN(C(=O)[C@H]5CC[C@H](n6cc(NC(=O)c7cnn8ccc(N9C[C@H]%10C[C@@H]9CO%10)nc78)c(C(F)F)n6)CC5)CC4)C3)c21 (stereo partly drawn)"
  DC50: "< 10 nM"
- molecule: "Cn1c(=O)n(C2CCC(=O)NC2=O)c2cccc(CCCOC3CCN(C[C@H]4CC[C@H](n5cc(NC(=O)c6cnn7ccc(N8CCOCC8)nc67)c(C(C)(C)O)n5)CC4)CC3)c21 (stereo partly drawn)"
  DC50: "100 to 1000 nM"
- molecule: "O=C1CCC(N2C(=O)c3cccc(NC4CCN(C[C@H]5CC[C@H](n6cc(NC(=O)c7cnn8ccc(N9CCOCC9)nc78)c(C(F)F)n6)CC5)CC4)c3C2=O)C(=O)N1 (stereo partly drawn)"
  DC50: "100 to 1000 nM"
- molecule: "CC[C@@H]1[C@H](F)C(=O)N[C@@H]1COc1ncc(C#CC2CCN(CCCC3CCN(c4cccc5c4C(=O)N(C4CCC(=O)NC4=O)C5=O)CC3)CC2)c2cc(C(N)=O)c(OC)cc12 (stereo partly drawn)"
  DC50: "100 to 1000 nM"
- molecule: "Cn1c(=O)n(C2CCC(=O)NC2=O)c2cccc(CCCC3CCN(C[C@H]4CC[C@H](n5cc(NC(=O)c6cnn7ccc(N8C[C@H]9C[C@@H]8CO9)nc67)c(C(F)F)n5)CC4)CC3)c21 (stereo partly drawn)"
  DC50: "< 10 nM"

Q: If you can, please state the reported DC50 value of COc1cc(C(=O)NCCCCCCN(C)C[C@H]2CC[C@H](n3cc(NC(=O)c4coc(-c5ccnc(NCC6CC6)c5)n4)c(C(F)F)n3)CC2)ccc1NC(=O)[C@@H]1N[C@@H](CC(C)(C)C)[C@](C#N)(c2ccc(Cl)cc2F)[C@H]1c1cccc(Cl)c1F .
Result: > 1000 nM

Q: If you can, please state the reported DC50 value of CN(C[C@@H]1CN(CCCCc2cccc3c2C(=O)N(C2CCC(=O)NC2=O)C3=O)CCO1)C[C@H]1CC[C@H](n2cc(NC(=O)c3coc(-c4ccnc(NCC5CC5)c4)n3)c(C(F)F)n2)CC1 (stereo partly drawn) .
Result: 10 to 100 nM

Q: If you can, please state the reported DC50 value of O=C1CCC(N2C(=O)c3cccc(NCCCOC4CCN(Cc5ccc(-n6cc(NC(=O)c7cnn8ccc(N9C[C@H]%10CC9CO%10)nc78)c(C(F)F)n6)cc5)CC4)c3C2=O)C(=O)N1 (stereo partly drawn) .
Result: 100 to 1000 nM

Q: If you can, please state the reported DC50 value of O=C1CCC(n2c(=O)oc3cc(CCCOCCOCCNC[C@H]4CC[C@H](n5cc(NC(=O)c6coc(-c7ccnc(NCC8CC8)c7)n6)c(C(F)F)n5)CC4)ccc32)C(=O)N1 (stereo partly drawn) .
Result: < 10 nM

Q: If you can, please state the reported DC50 value of CNc1cc(-c2nc(C(=O)Nc3cn([C@H]4CC[C@H](CN(C)CCCOCCCc5cccc6c5n(C)c(=O)n6C5CCC(=O)NC5=O)CC4)nc3C(F)F)co2)ccn1 (stereo partly drawn) .
Result: 10 to 100 nM

Q: If you can, please state the reported DC50 value of CC[C@@H]1[C@H](F)C(=O)N[C@@H]1COc1ccc(C#C[C@H]2CC[C@H](CN3CCC4(CC3)CC(CNc3cccc5c3C(=O)N(C3CCC(=O)NC3=O)C5=O)C4)CC2)c2cc(C(N)=O)c(OC)cc12 (stereo partly drawn) .
Result: > 1000 nM

Q: If you can, please state the reported DC50 value of O=C1CCC(N2C(=O)c3cccc(OCCCOC4CCN(C[C@H]5CC[C@H](n6cc(NC(=O)c7cnn8ccc(N[C@@H]9CCCC[C@@H]9O)nc78)c(C(F)F)n6)CC5)CC4)c3C2=O)C(=O)N1 (stereo partly drawn) .
Result: 10 to 100 nM
